System: Erythromycin-resistant L. pneumophila
Format: cell-based, Legionella pneumophila
Measured attribute: PAE (mean PAE) (h)
Numbers only, in h.

// worked examples, PAE (mean PAE) included
COc1c(N2C[C@@H]3CCCN[C@@H]3C2)c(F)cc2c(=O)c(C(=O)O)cn(C3CC3)c12: 3.38
N[C@@H]1[C@H]2CN(c3nc4c(cc3F)c(=O)c(C(=O)O)cn4-c3ccc(F)cc3F)C[C@@H]12: 2.83
CO/N=C1\CN(c2nc3c(cc2F)c(=O)c(C(=O)O)cn3C2CC2)CC1CN (racemic): 4.65

Proceeding to the next compound to report its PAE (mean PAE).
PAE (mean PAE) for Cc1c(F)c(N2CCNC(C)C2)cc2c1c(=O)c(C(=O)O)cn2C1CC1 (stereo not shown) is 4.18

Origin of the recorded values: patent US6340689B1
